assay: Stability under heat and moisture, 40°C/75% RH (residual content by HPLC); assay type: physicochemical; settings: Week 1
Exercise: for every item that follows, state its recorded residual content.
Numbers only here, please. The scale is %.

Tell me measured residual content for CC(C)(C)C(=O)OCOP(=O)(COC1(Cn2cnc3cnc(N)nc32)CC1)OCOC(=O)C(C)(C)C.O=C(O)/C=C\C(=O)O.O=C(O)/C=C\C(=O)O.O=C(O)/C=C\C(=O)O [Comparative Example 2] please.
84.4

Tell me measured residual content for CC(C)(C)C(=O)OCOP(=O)(COC1(Cn2cnc3cnc(N)nc32)CC1)OCOC(=O)C(C)(C)C.Cc1ccc(S(=O)(=O)O)cc1.Cc1ccc(S(=O)(=O)O)cc1 [Comparative Example 4] please.
0.0

Tell me measured residual content for CC(C)(C)C(=O)OCOP(=O)(COC1(Cn2cnc3cnc(N)nc32)CC1)OCOC(=O)C(C)(C)C.O=C(O)/C=C\C(=O)O [Example] please.
99.4

Tell me measured residual content for CC(C)(C)C(=O)OCOP(=O)(COC1(Cn2cnc3cnc(N)nc32)CC1)OCOC(=O)C(C)(C)C.Cc1ccc(S(=O)(=O)O)cc1 [Comparative Example 3] please.
96.5

Tell me measured residual content for CC(C)(C)C(=O)OCOP(=O)(COC1(Cn2cnc3cnc(N)nc32)CC1)OCOC(=O)C(C)(C)C [Comparative Example 1] please.
99.0

Tell me measured residual content for CC(C)(C)C(=O)OCOP(=O)(COC1(Cn2cnc3cnc(N)nc32)CC1)OCOC(=O)C(C)(C)C.CS(=O)(=O)O [Comparative Example 5] please.
50.7

====

tested on: HepG2.2.15; experiment: Cytotoxicity determination (MTT); conditions: HepG2.2.15, MTT
measured-quantity: CC50 (µM)
Numbers only here, please. The scale is µM.

Tell me measured CC50 for CC(C)(C)C(=O)OCOP(=O)(COC1(Cn2cnc3cnc(N)nc32)CC1)OCOC(=O)C(C)(C)C [Comparative Example 1] please.
7.9

====

Exercise: for every item that follows, state its recorded residual content.
experiment: Stability under heat and moisture, 40°C/75% RH (residual content by HPLC); type: physicochemical; conditions: Week 8
Numbers only here, please. The scale is %.

Tell me measured residual content for CC(C)(C)C(=O)OCOP(=O)(COC1(Cn2cnc3cnc(N)nc32)CC1)OCOC(=O)C(C)(C)C.O=C(O)/C=C\C(=O)O please.
98.3

Tell me measured residual content for CC(C)(C)C(=O)OCOP(=O)(COC1(Cn2cnc3cnc(N)nc32)CC1)OCOC(=O)C(C)(C)C please.
8.4

Tell me measured residual content for CC(C)(C)C(=O)OCOP(=O)(COC1(Cn2cnc3cnc(N)nc32)CC1)OCOC(=O)C(C)(C)C.Cc1ccc(S(=O)(=O)O)cc1.Cc1ccc(S(=O)(=O)O)cc1 please.
0.0

Tell me measured residual content for CC(C)(C)C(=O)OCOP(=O)(COC1(Cn2cnc3cnc(N)nc32)CC1)OCOC(=O)C(C)(C)C.CS(=O)(=O)O please.
0.0

Tell me measured residual content for CC(C)(C)C(=O)OCOP(=O)(COC1(Cn2cnc3cnc(N)nc32)CC1)OCOC(=O)C(C)(C)C.O=C(O)/C=C\C(=O)O.O=C(O)/C=C\C(=O)O.O=C(O)/C=C\C(=O)O please.
0.0
